# TESTED_ON: human IgEλ (U266 derived) (human, UniProt P01854 1-546)
# Sequence (P01854 whole entry): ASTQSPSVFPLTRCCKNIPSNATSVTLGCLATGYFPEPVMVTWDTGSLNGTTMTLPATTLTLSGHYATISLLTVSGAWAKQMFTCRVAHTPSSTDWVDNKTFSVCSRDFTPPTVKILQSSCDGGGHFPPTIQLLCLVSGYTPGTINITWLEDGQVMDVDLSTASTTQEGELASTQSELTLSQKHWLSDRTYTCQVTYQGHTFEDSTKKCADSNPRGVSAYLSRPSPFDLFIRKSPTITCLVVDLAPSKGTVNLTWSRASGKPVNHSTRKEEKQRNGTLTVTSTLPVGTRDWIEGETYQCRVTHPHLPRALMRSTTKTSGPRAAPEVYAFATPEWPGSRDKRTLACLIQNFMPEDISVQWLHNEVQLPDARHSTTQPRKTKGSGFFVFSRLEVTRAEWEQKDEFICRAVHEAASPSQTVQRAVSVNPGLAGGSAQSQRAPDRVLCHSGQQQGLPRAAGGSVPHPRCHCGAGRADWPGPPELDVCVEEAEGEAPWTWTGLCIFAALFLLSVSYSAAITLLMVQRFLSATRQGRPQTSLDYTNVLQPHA
# RUN_DESCRIPTION: HTRF receptor-ligand competition, scFv titrated; Eu-cryptate human IgE (U266) binding to human FcεRI-Fc; geomean
Reported IC50 values follow for various binders
Value expressed in nM; do not type the unit.

Worked cases, IC50 given:
- BINDER: "Antibody 17 (scFv) (scFv, V domains shown, purified scFv) VH: EVQLLESGGGLVQPGGSLRLSCAAPGFTFSSYAMSWVRQAPGKGLEWVSAISGGSGGRTYYADSVKGRFTISRDNSKNTLYLQMNSLRAEDTAVYYCARHIAVAGTRGFDYWGRGTLVTVSS VL: SYVLTQPPSVSVSPGQTASITCSGDKLGDTYASWYRQRSGQSPVLVIYQDDKRPSGIPERFSGSNSGDTATLTISGTHTMDEADYYCLAWDTRTSGAVFGGGTKLTVL"
  MEASUREMENT_UNIT: "nM"
  IC50: 7
- BINDER: "Antibody 24 (scFv) (scFv, V domains shown, purified scFv) VH: EVQLLESGGGLVQPGGSLRLSCAAPGFTFSSYAMSWVRQAPGKGLEWVSAISGGSGGRTYYADSVKGRFTISRDNSKNTLYLQMNSLRAEDTAVYYCARHIAVAGTRGFDYWGRGTLVTVPS VL: SFVLTQPPSVSVSPGQTASITCSGDKLGDTYASWYRQRSGQSPVLVIYQDDKRPSGIPERFSGSNSGNTATLTISGTHTMDEADYYCLAWDTRTSGAVFGGGTKLTVL"
  MEASUREMENT_UNIT: "nM"
  IC50: 4

Consider the record given below.
Q. Please give the documented IC50 of Antibody 31 (scFv) (scFv, V domains shown, purified scFv) VH: EVQLLESGGGLVQPGGSLRLSCAASGFTFSSYAMSWVRQAPGKGLEWVSAISGSGGRTYYADSVKGRFTISRDNSKNTLYLQMNSLRAEDTAVYYCARLSYPAITRGFDYWGRGTLVTVSS VL: SYVLTQPPSVSVSPGQTASITCSGDKLGDKYASWYRQRSGQSPVLVIYQDDKRPSGIPERFSGSNSGNTATLTISGTHTMDEADYYCLAWDTRTSGAVFGGGTKLTVL
A. 9
